The reader will find reported growth values listed item by item below.
# Tested on: HS 578T breast
# Assay Notes: NCI-60 one-dose screen, 48 h (100 = growth as untreated, 0 = no growth, -100 = all killed)
# Particulars: 10 µM unless noted
About 83,000 compounds went through this panel and 20% of them were active in at least one assay; those are over-represented in the sample as a whole.
Measured Property: growth (%)

[[record]]
molecule = "C=CC(=O)N[C@H](/C=C/C(=O)OCC)Cc1ccc(-c2cc(Cl)cc(Cl)c2)cc1"
measured_property = "growth"
reported_value = 94.8

[[record]]
molecule = "O=C1NC(Cc2c[nH]c3ccccc23)C(=O)N1Cc1ccc(Cl)cc1 (stereo unspecified)"
measured_property = "growth"
reported_value = 108

[[record]]
molecule = "O=C(O)c1ccc(-n2cc(CNc3ccc(C(F)(F)F)cc3)c(-c3ccccc3)n2)cc1"
measured_property = "growth"
reported_value = 93.7

[[record]]
molecule = "COc1ccc(Cn2c(SC)nc(=O)n(Cc3ccc(Cl)cc3)c2=O)cc1"
measured_property = "growth"
reported_value = 94

[[record]]
molecule = "COc1cc(C(=O)CCCl)ccc1O"
measured_property = "growth"
reported_value = 101

[[record]]
molecule = "COc1ccc2c(c1)C(C)Cc1c(N(C)C)ncnc1N2C (stereo unspecified)"
measured_property = "growth"
reported_value = 13.3

[[record]]
molecule = "COc1ccc(C(=O)/C=C/c2cc(C(=O)c3cc(OC)c(OC)c(OC)c3)ccc2OC)cc1"
measured_property = "growth"
reported_value = 62.5

[[record]]
molecule = "CC[C@]1(O)C[C@@H]2CN(Cc3c([nH]c4ccccc34)[C@@](C(=O)OC)(c3cc4c(cc3OC)N(C)[C@H]3[C@@](O)(C(=O)OC)[C@H](OC(C)=O)[C@]5(CC)[C@@H]6C[C@@H]6CN6CC[C@]43[C@@H]65)C2)C1"
measured_property = "growth"
reported_value = 16.8

[[record]]
molecule = "Cc1ccc2nc(SCn3nnc4ccccc4c3=O)[nH]c2c1"
measured_property = "growth"
reported_value = 107

[[record]]
molecule = "CC(=O)Nc1nc(C(=O)N2N=C(C)/C(=C/c3ccccc3)C2=O)cs1"
measured_property = "growth"
reported_value = 111

[[record]]
molecule = "CCCCCC/C=C\\CCCCCCCCOc1ccc(CCOP(=O)(O)OCC[N+](C)(C)C)cc1"
measured_property = "growth"
reported_value = 89.5

[[record]]
molecule = "COc1ncc(-c2ccc3ncnc(Nc4cccc(Cl)c4)c3c2)cc1N(S(C)(=O)=O)S(C)(=O)=O"
measured_property = "growth"
reported_value = 49.7

[[record]]
molecule = "COc1ccc(C(=O)c2cc(OC)c(OC)c(OC)c2)cc1/C=C/C(=O)c1ccc(OC)c(OC)c1"
measured_property = "growth"
reported_value = 31.5

[[record]]
molecule = "NCCSC(c1ccccc1)(c1ccccc1)c1ccccc1"
measured_property = "growth"
reported_value = 16.8

[[record]]
molecule = "Cc1cc2c(c(=O)o1)C(c1ccc(OC(=O)N3CCOCC3)cc1)C(C#N)=C(N)O2 (stereo unspecified)"
measured_property = "growth"
reported_value = 116

[[record]]
molecule = "CCCCCCCC/C=C\\CCCCCCCCOc1ccccc1CCOP(=O)(O)OCC[N+](C)(C)C"
measured_property = "growth"
reported_value = 88

[[record]]
molecule = "COc1cccc(/C=C2\\SC(N3CCN(c4ccccn4)CC3)=NC2=O)c1"
measured_property = "growth"
reported_value = 95.8

[[record]]
molecule = "CC(=O)Nc1ccc(S(=O)(=O)NC(CCC(=O)Nc2ccc(Cl)cc2)C(=O)O)cc1 (stereo unspecified)"
measured_property = "growth"
reported_value = 98.4

[[record]]
molecule = "Cc1ccc(-c2csc3nc(C)c(CCCl)c(=O)n23)cc1"
measured_property = "growth"
reported_value = 83

[[record]]
molecule = "CSc1nc(-c2cc3ccccc3o2)cc(-c2ccc(Cl)cc2)c1C#N"
measured_property = "growth"
reported_value = 76

[[record]]
molecule = "Cc1nc2scc(-c3ccccc3)n2c(=O)c1CCO"
measured_property = "growth"
reported_value = 95

[[record]]
molecule = "c1ccc2c(c1)Oc1ccccc1C2C1c2ccccc2Oc2ccccc21"
measured_property = "growth"
reported_value = 99.6

[[record]]
molecule = "COc1cc(/C=C/C(=O)c2ccc(NC(=O)CN3CCN(c4cc5c(cc4F)c(=O)c(C(=O)O)cn5C4CC4)CC3)cc2)cc(OC)c1OC"
measured_property = "growth"
reported_value = 76.8

[[record]]
molecule = "O=C(NCCCN1CCN(CCCNC(=O)C2CCCCC2)CC1)C1CCCCC1"
measured_property = "growth"
reported_value = 102

[[record]]
molecule = "CCN1C(=O)N[C@H]2[C@@H]3NC(=O)c4ccc(Cl)n4[C@@H]3C[C@]21O"
measured_property = "growth"
reported_value = -10.9

[[record]]
molecule = "O=C(CN1CCN(c2cc3c(cc2F)c(=O)c(C(=O)O)cn3C2CC2)CC1)Nc1ccc(C(=O)/C=C/c2ccc(Cl)cc2)cc1"
measured_property = "growth"
reported_value = 108

[[record]]
molecule = "CN1CCN(c2ccc3cc(-c4nc5ccccc5[nH]4)c(=O)oc3c2)CC1"
measured_property = "growth"
reported_value = 96.1

[[record]]
molecule = "c1cc(-c2ccc3c(c2)OCO3)n2nccc2n1"
measured_property = "growth"
reported_value = 105

[[record]]
molecule = "CCOC(=O)c1ccccc1NC(c1ccccc1)c1ccc2cccnc2c1O (stereo unspecified)"
measured_property = "growth"
reported_value = 71.6

[[record]]
molecule = "CCCCCCC[C@@H](O)CC(=O)N[C@H](CCCCN)C(=O)N[C@H](Cc1c[nH]c2ccccc12)C(=O)NC(CCCCN)C(=O)N[C@H](CC(C)C)C(=O)N[C@H](Cc1ccccc1)C(=O)N[C@H](CCCCN)C(=O)N[C@H](CCCCN)C(=O)N[C@H](CC(C)C)C(=O)N1CCCC1C(=O)N[C@H](CCCCN)C(=O)N[C@H](Cc1ccccc1)C(=O)N[C@H](CC(C)C)C(=O)N[C@H](Cc1c[nH]cn1)C(=O)N[C@H](CC(C)C)C(=O)N[C@H](C)C(=O)N[C@H](CCCCN)C(=O)N[C@H](CCCCN)C(=O)N[C@H](Cc1ccccc1)C(=O)O (stereo partly specified)"
measured_property = "growth"
reported_value = -42.4

[[record]]
molecule = "CCCCCCCCCCC/C=C\\C[C@H](O)C/C=C1/C(=O)C=C[C@@H]1C/C=C\\CCCC(=O)OC"
measured_property = "growth"
reported_value = 18

[[record]]
molecule = "C=C1C(=O)O[C@H]2[C@H](O)[C@@H](C)CCC/C(C)=C/CC[C@@]3(C)O[C@@H]3C[C@@H]12"
measured_property = "growth"
reported_value = 98.4

[[record]]
molecule = "NC(=O)NNC(=O)c1ccccc1"
measured_property = "growth"
reported_value = 108

[[record]]
molecule = "CCCCn1c(=O)c(C2CNC(=O)c3ccccc3N2)cc2ccccc21 (stereo unspecified)"
measured_property = "growth"
reported_value = 94.6

[[record]]
molecule = "Cc1ccc(S(=O)(=O)N2CCC(C(=O)Nc3ccc(F)cc3F)CC2)cc1"
measured_property = "growth"
reported_value = -32.4

[[record]]
molecule = "O=C(NNC(=S)Nc1ccccc1)c1ccccn1"
measured_property = "growth"
reported_value = 65.8

